Assay: In vivo pharmacokinetic assay in rats (intravenous injection and oral administration)
Conditions: male, rat, plasma; SD rats, intravenous injection, 1 mg/kg
property_label: clearance (mL/min/kg)

{"columns": ["compound", "meas_value"],
 "data": [
  ["C[C@@H]1CN(c2ncc(C(F)(F)F)cn2)CCN1C(=O)OCCc1c[nH]c(=O)c(C(F)(F)F)c1 [Example 109]", 15]
]}

[I] C[C@@H](Cc1c[nH]c(=O)c(C(F)(F)F)c1)OC(=O)N1CCN(c2ncc(C(F)(F)F)cn2)[C@@H](C)C1 [Example 93]
[II] O=C(OCCc1c[nH]c(=O)c(C(F)(F)F)c1)N1CCN(c2ncc(C(F)(F)F)cn2)CC1 [Example 3]
[III] C[C@@H](Cc1c[nH]c(=O)c(C(F)(F)F)c1)OC(=O)N1CCN(c2ncc(C(F)(F)F)cn2)CC1 (single isomer, unassigned) [Example 35]
Given 3 compounds, produce a descending ranking by clearance. # the answer lists labels in the order requested
III, I, II

###

Experiment: In vivo pharmacokinetic assay in rats (intravenous injection and oral administration)
Settings: male, rat, plasma; SD rats, intravenous injection, 1 mg/kg
property_label: half-life (h)

Worked examples follow.
{"columns": ["compound", "half-life, h"],
 "data": [
  ["C[C@@H](Cc1c[nH]c(=O)c(C(F)(F)F)c1)OC(=O)N1CCN(c2ncc(C(F)(F)F)cn2)[C@@H](C)C1", 1.9],
  ["C[C@@H](Cc1c[nH]c(=O)c(C(F)(F)F)c1)OC(=O)N1CCN(c2ncc(C(F)(F)F)cn2)CC1 (single isomer, unassigned)", 3.5]
]}

[P] C[C@@H]1CN(c2ncc(C(F)(F)F)cn2)CCN1C(=O)OCCc1c[nH]c(=O)c(C(F)(F)F)c1
[Q] O=C(OCCc1c[nH]c(=O)c(C(F)(F)F)c1)N1CCN(c2ncc(C(F)(F)F)cn2)CC1
When the recorded half-life values are compared, which is smaller: that of P or that of Q ? Your answer should be the label of the entry you select.
P
(P: 2.3 h, Q: 4.7 h)

###

These records show pIC50 for PARP7 (Homo sapiens (Human), UniProt Q7Z3E1).
pIC50: −log10 of the molar value.
property_label: pIC50

Worked examples follow.
{"columns": ["molecular_string", "pIC50"],
 "data": [
  ["C[C@@H]1CN(c2ncc(C3CC3)cn2)C[C@@H](C)N1C(=O)O[C@@H](C)Cc1c[nH]c(=O)c(C(F)(F)F)c1", 9.12],
  ["C[C@@H]1CN(c2ncc(C3CC3)cn2)C[C@H](C)N1C(=O)O[C@@H](C)Cc1c[nH]c(=O)c(C(F)(F)F)c1", 8.89],
  ["O=C(OCCc1c[nH]c(=O)c(C(F)(F)F)c1)N1C2CCC1CN(c1ncc(C(F)(F)F)cn1)C2", 9.00],
  ["CN(CCc1c[nH]c(=O)c(C(F)(F)F)c1)C(=O)N1CCN(c2ncc(C(F)(F)F)cn2)CC1", 9.00]
]}

[P] O=C(OCCc1c[nH]c(=O)c(C(F)(F)F)c1)N1CCN(c2ncc(C(F)(F)F)cn2)C[C@H]1CO
[Q] C[C@@H]1CN(C(=O)OCCc2c[nH]c(=O)c(C(F)(F)F)c2)C[C@H](C)N1c1ncc(C2CC2)cn1
When the recorded pIC50 values are compared, which is smaller: that of P or that of Q ? Your answer should be the label of the entry you select.
Q
(Q: 8.89, P: 9.19)

Where do the numbers come from? From patent US20240351997A1.
